target: cynomolgus PAI-1 (cynomolgus, UniProt P05121 24-402 (human entry), limits assumed); assay: cell-based or functional assay
metricName: Chromogenic (IC50 in nM) cyno
Respond numerically; units are nM and should not be typed.

Fill blank: measured Chromogenic (IC50 in nM) cyno of the binder Antibody 09 scFv (scFv) QVQLQQSGAEVKKPGSSVKVSCKASGGTFSSYAISWVRQAPGQGLEWMGGIIPAFDTANYAQKFQGRVTITADESTSTAYMELSGLRSEDTAVYYCAREKRQWLEGHFDYWGRGTPVTVSSDIQMTQSPSFLSASIGDRVTITCQASEGIYHNLAWYQQKPGKAPKLLIYRASSLASGAPSRFSGSGSGTDFTLTISSLQPDDFATYYCQQYSNYPLTFGGGTKLEIK is ____.
0.7

// repeat for Antibody 25 scFv (scFv) QVQLQQSGAEVKKPGSSVKVSCKASGGTFSSYAISWVRQAPGQGLEWMGGIIPTFGTANYAQKFQGRVTITADESTSTAYMELSGLRSEDTAVYYCARERRQWLEGHFDYWGQGTPVTVSSDIQMTQSPSFLSASIGDRVTITCRASESIYHELAWYQQKPGKAPKLLIYKASSLASGAPSRFSGSGSGTAFTLTISSLQPDDFATYYCQQYSNYPLTFGGGTKLEIK and report
4.6

// repeat for Antibody 18 scFv (scFv) QVQLQQSGAEVKKPGSSVKVSCKASGGTFSSYAISWVRQAPGQGLEWMGGIIPTFGTANYAQKLQGRVTITADESTSTAYMELSGLRSEDTAVYYCAREKRQWLEGHFDYWGRGTPVTVSSDIQMTQSPSFLSASIGDRVTITCRASEGIYHALAWYQQKPGKAPKLLIYRASSLASGAPSRFSGSGSGTDFTLTISSLQPDDFATYYCQQYSNYPLTFGGGTKLEIK and report
0.5
